Recorded values, source patent US20180291081A1.

# Experimental Target: T1, PD-1 molecule (refolded, purified and biotinylated PD-1 of Example 2) (UniProt Q15116 33-150, biotinylated with BirA enzyme (site not stated))
# T1 construct: also called Programmed Death-1
# T1 sequence (Q15116 33-150 limits assumed): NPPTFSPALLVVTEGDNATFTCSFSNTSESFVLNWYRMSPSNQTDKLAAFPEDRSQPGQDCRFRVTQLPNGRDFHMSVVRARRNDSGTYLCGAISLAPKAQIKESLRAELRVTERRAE
# Measurement Description: SPR (BIAcore T200), single-cycle kinetics; biotinylated PD-1 captured via streptavidin, PDL-1 variant in solution
Reported Endpoint: Kd (nM)
Numbers only; they are read as nM.

For high affinity PDL-1 molecule L2C4 (ligand) FTVTVPKDLYVVEYGSNMTIECKFPVEKQLDLAALQVHWWMEDKNIVSFVHGEEDLKVQHSSYRQRARLLKDQLSLGNAALQITDVKLQDAGVYRCMISYGGADYKRITVKVNAPYNKINQRILVVDPVTSEHELTCQAEGYPKAEVIWTSSDHQVLSGKTTTTNSKREEKLFNVTSTLRINTTTNEIFYCTFRRLDPEENHTAELVIPEL , write its Kd. 11200

For high affinity PDL-1 molecule L1F2 (ligand) FTVTVPKDLYVVEYGSNMTIECKFPVEKQLDLAALQVNWLMEDKNIIQFVHGEEDLKVQHSSYRQRARLLKDQLSLGNAALQITDVKLQDAGVYLCLISYGGADYKRITVKVNAPYNKINQRILVVDPVTSEHELTCQAEGYPKAEVIWTSSDHQVLSGKTTTTNSKREEKLFNVTSTLRINTTTNEIFYCTFRRLDPEENHTAELVIPEL , write its Kd. 3440

Then there is this binder:
For high affinity PDL-1 molecule L1A4 (ligand) WTVTVPKDLYVVEYGSNMTIECKFPVEKQLDLAALQVFWMMEDKNIIQFVHGEEDLKVQHSSYRQRARLLKDQLSLGNAALQITDVKLQDAGVYTCLISYGGADYKRITVKVNAPYNKINQRILVVDPVTSEHELTCQAEGYPKAEVIWTSSDHQVLSGKTTTTNSKREEKLFNVTSTLRINTTTNEIFYCTFRRLDPEENHTAELVIPEL , write its Kd. 914
